Experimental protocol: Plasma concentration in rats after oral administration (HPLC)
Condition: rat, plasma, po, 100 mg/kg
Measure: log10 concentration at 2 h (log10 of the value in ng/mL)
Kindly note that the scale is log10 and the underlying concentration at 2 h is in ng/mL.

Solved cases (2 shown):
> print(dat)
                                   compound                     measure  result.number
1  N=C(N)c1cccc(CC(NS(=O)(=O)c2ccc3ccccc3c2)C(=O)N2CCC(C(=O)O)CC2)c1 (racemic) [Compound 85]  log10 concentration at 2 h           2.01
2  N=C(N)c1cccc(CC(NS(=O)(=O)c2ccc3ccccc3c2)C(=O)N2Cc3ccccc3CC2C(=O)O)c1 (racemic) [Compound 134]  log10 concentration at 2 h           2.37

So, N=C(N)c1cccc(CC(NS(=O)(=O)c2ccc3ccccc3c2)C(=O)N2CCCCC2C(=O)O)c1 (racemic) [Compound 83] ? Its log10 concentration at 2 h was 1.58

// log10 concentration at 2 h value for N=C(NO)c1cccc(CC(NS(=O)(=O)c2ccc3ccccc3c2)C(=O)N2Cc3ccccc3CC2C(=O)O)c1 (racemic) [Compound 190, hydroiodide] : 2.73

Field log10 concentration at 2 h (entry NCc1cccc(CC(NS(=O)(=O)c2ccc3ccccc3c2)C(=O)N2CCC(C(=O)O)CC2)c1 (racemic) [Compound 186] ) reads 2.79

Values were extracted from patent US5518735A.
